subject_of_test: T1, Human BCMA (human, UniProt Q02223 1-54, limits assumed)
T1 construct: Soluble analyte in SPR; construct not described; also called huBCMA; B-cell maturation antigen
T1 sequence (looked up): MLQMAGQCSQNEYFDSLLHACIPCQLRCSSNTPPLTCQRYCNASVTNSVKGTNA
procedure_summary: SPR, IgG immobilised, 37 C
Description: All experiments were performed on a Bio-Rad Proteon XPR36 surface Plasmon resonance biosensor (Bio-Rad, Hercules, Calif.). […] The analysis temperature for the immobilization was 25° C. and the running buffer was HBS-T+(10 mM HEPES, 150 mM NaCl, 0.05% Tween-20, pH 7.4). […] The analysis temperature for the BCMA binding analysis was 37° C. or 25° C. in a running buffer of HBS-T+, supplemented with 1 mg/mL BSA. […] Immediately after the 50 nM BCMA injection, dissociation was monitored for 2 hours. […]
# T ½ per entry
API: value field is a number in min; no unit string.

Example entries begin here.
binder	reported_result
L3.PY/L3.KF/H2.LT (antibody, V domains shown, IgG) VH: EVQLLESGGGLVQPGGSLRLSCAASGFTFGSYAMTWVRQAPGKGLEWVSAISLTGGNTFYADSVKGRFTISRDNSKNTLYLQMNSLRAEDTAVYYCARVSPIASGMDYWGQGTLVTVSS VL: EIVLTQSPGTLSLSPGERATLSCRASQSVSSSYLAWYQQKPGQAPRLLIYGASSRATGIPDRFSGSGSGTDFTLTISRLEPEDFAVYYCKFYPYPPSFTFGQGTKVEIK	6.05
L3.PY/H2.HA (antibody, V domains shown, IgG) VH: EVQLLESGGGLVQPGGSLRLSCAASGFTFGSYAMTWVRQAPGKGLEWVSAISHAGGNTFYADSVKGRFTISRDNSKNTLYLQMNSLRAEDTAVYYCARVSPIASGMDYWGQGTLVTVSS VL: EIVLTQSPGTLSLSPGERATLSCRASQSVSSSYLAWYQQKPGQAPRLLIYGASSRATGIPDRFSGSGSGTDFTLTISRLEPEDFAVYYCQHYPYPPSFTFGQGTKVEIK	7.89

From here, focus on the item given below.
T ½ in this record for L3.PY/L1.PS/H3.YA (antibody, V domains shown, IgG) VH: EVQLLESGGGLVQPGGSLRLSCAASGFTFGSYAMTWVRQAPGKGLEWVSAISGSGGNTFYADSVKGRFTISRDNSKNTLYLQMNSLRAEDTAVYYCARVSPIYAGMDYWGQGTLVTVSS VL: EIVLTQSPGTLSLSPGERATLSCRASQSVSSSYPSWYQQKPGQAPRLLIYGASSRATGIPDRFSGSGSGTDFTLTISRLEPEDFAVYYCQHYPYPPSFTFGQGTKVEIK : 1.28
